System: CD2F1 mice, L1210 leukemia ip, survival T/C
assay.method.text: NCI In Vivo Anticancer Drug Screen. Data for tumor model L1210 Leukemia (intraperitoneal) in CD2F1 (CDF1) mice
measurement.parameters: endpoint: mean survival time; dose: 400.0 mg/kg/injection; schedule: Q01DX001 (ip); vehicle: saline with Tween-80; higher = longer survival
Toxic doses and inconclusive results are not listed.
Record form. Attribute: T/C. Fill in for each entry.

Example cases with answers are listed next.
- compound: "COc1ccc(/C=C/C(=O)O)cc1"
  T/C: "97 % of control"
- compound: "CCCCCCCCCCCCCCCCOc1ccc(OCCCCCCCCCCCCCCC)cc1"
  T/C: "88 % of control"
- compound: "COc1ccc(OC)c(NC(=S)NC(=O)COc2ccccc2)c1"
  T/C: "89 % of control"

# batch: return T/C for each of the 4 compounds below
1. CC1SCCS1
2. O=C(NCCCl)NC1C(O)C(O)C(O)C(O)C1O (configuration not stated)
3. CC(C)(C)NC(=O)Nc1ccc(Cl)c(Cl)c1
4. O=C(O)c1ccc(N/N=C/C(F)(F)F)cc1

Result:
1: 100 % of control; 2: 98 % of control; 3: 93 % of control; 4: 118 % of control

Source: PubChem BioAssay AID256
